molecular target: CDK11A (Homo sapiens, UniProt Q9UQ88); details: displacement of SNS-032-Atto590 probe (0.002 μM) from CDK11A-p58 (0.032 uM), fluorescence polarization;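 note: compound preincubated 30 min with CDK11A-p58, then probe added and polarization (mP) read 15 min later, 0% displacement is probe plus enzyme, 100% is probe alone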
Sequence (Q9UQ88 346-783): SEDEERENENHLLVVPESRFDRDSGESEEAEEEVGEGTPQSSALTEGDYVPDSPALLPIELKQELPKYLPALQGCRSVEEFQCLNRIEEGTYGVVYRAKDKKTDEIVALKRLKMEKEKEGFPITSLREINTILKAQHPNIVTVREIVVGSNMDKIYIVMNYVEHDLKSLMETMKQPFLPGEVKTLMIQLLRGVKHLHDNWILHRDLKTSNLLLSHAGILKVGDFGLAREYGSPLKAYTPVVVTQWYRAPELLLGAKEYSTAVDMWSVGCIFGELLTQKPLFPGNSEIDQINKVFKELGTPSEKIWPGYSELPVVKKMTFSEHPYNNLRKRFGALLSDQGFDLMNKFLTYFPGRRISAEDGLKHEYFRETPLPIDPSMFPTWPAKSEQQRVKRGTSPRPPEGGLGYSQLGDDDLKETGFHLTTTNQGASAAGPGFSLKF
Counter-ions that a name gives are not always drawn.
Endpoint Label: DC50 (nM)

1) O=C(Nc1n[nH]c2ccc(-c3ccc(Cl)cc3Cl)cc12)[C@@H]1CCCNC1 [cpd 14, hydrochloride] : 87
2) CN1CCC(C(=O)Nc2n[nH]c3ccc(-c4c(Cl)cccc4Cl)cc23)CC1 : 85

1: CN1CCC(C(=O)Nc2n[nH]c3ccc(-c4ccc(F)cc4F)cc23)CC1 [compound 124, hydrochloride]
2: COCC(C)N1CCC(C(=O)Nc2n[nH]c3ccc(-c4c(F)cccc4Cl)cc23)CC1 (stereo not shown) [cpd 67, hydrochloride]
q: Pick the one with the larger DC50: 1 vs 2 Write the label of whichever entry you select.
a: 1
(1: 637 nM, 2: 151 nM)
